test system: Staphylococcus aureus; test: Antibacterial activity against Staphylococcus aureus ATCC 25923 Seattle 1945 measured after overnight incubation; assay type: functional
Quick reference: MIC of the listed items.
recorded_metric: MIC

compound | observed_value
O=C(N[C@H](CO)[C@H](O)c1ccc([N+](=O)[O-])cc1)C(Cl)Cl [CHLORAMPHENICOL] | 4 µg/mL
CCC/C=C/C=C/CCc1cccc(O)c1 | 22 µg/mL
CCC/C=C/CCCCc1cccc(O)c1 | 22 µg/mL
C#CCCC/C=C/CCCCc1cccc(O)c1 | 6.1 µg/mL
